The values you see were collected from patent US8993618B2.

assay: MTT cytotoxicity assay, MDA-MB-231; settings: human, MDA-MB-231 breast cancer cells
MEASUREMENT_TYPE: IC50 at 3 days

COMPOUND: COc1cc(C=O)ccc1O (single isomer, unassigned)
RESULT: > 20 µg/mL
